system: PBMC; test: Inhibition of LPS-induced IL1-beta release in human PBMC at 10 uM […]; assay type: functional
Parameter: inhibition at 10 µM. Scope: all listed entries.
The figure you give is taken to be in %; do not add the unit.

* Cc1cc(Cl)ccc1B(OC(=O)c1ncccc1O)c1ccc(Cl)cc1C | 103
* CC[C@H]1OC(=O)[C@H](C)[C@@H](O[C@H]2C[C@@](C)(OC)[C@@H](O)[C@H](C)O2)[C@H](C)[C@@H](O[C@@H]2O[C@H](C)C[C@H](N(C)C)[C@H]2O)[C@](C)(O)C[C@@H](C)C(=O)[C@H](C)[C@@H](O)[C@]1(C)O | -32
* CC(=O)Oc1cccnc1C(=O)OB(c1ccc(C)c(Cl)c1)c1ccc(C)c(Cl)c1 | -49
* Cc1ccc(B(OC(=O)c2ncccc2O)c2ccc(C)c(Cl)c2)cc1Cl | 99

Now examine the next entry.
Per the reported PBMC data, Cc1ccc(B(OC(=O)c2ccc(C(=O)O)cn2)c2ccc(C)c(Cl)c2)cc1Cl has inhibition at 10 µM of 80

###

tested on: Staphylococcus aureus; assay: Antibacterial activity against Staphylococcus aureus; format: functional
Measured MIC accompanies every entry in the list below.
Hi! Could you send only the number? It should be in µg/mL, unit omitted.

* Cc1ccc(B(OC(=O)c2ncccc2C(=O)O)c2ccc(C)c(Cl)c2)cc1Cl | 0.125

Entry under test: Cc1ccc(B(CCc2ccccc2)OC(=O)c2ncccc2O)cc1Cl . Its MIC was 0.5

The reported value for O=C(OB(c1ccc(Cl)cc1)c1ccc(Cl)nc1)c1ncccc1O in terms of MIC is 32

MIC reading for Cc1ccc(B(OC(=O)c2ncccc2O)c2ccc(C)c(Cl)c2)cc1Cl : 1

get_value(item= Cc1ccc(B(OC(=O)c2cc(C(=O)O)ccn2)c2ccc(C)c(Cl)c2)cc1Cl , readout=MIC) returns 2

Kindly note the recorded MIC for Cc1ccccc1B(OC(=O)c1ncccc1O)c1cccc(Cl)c1 , which is 8

Quick note, MIC for O=C(OB(c1ccsc1)c1cccc(Cl)c1)c1ncccc1O landed at 32

Data point: CC(=O)Oc1cccnc1C(=O)OB(c1ccc(C)c(Cl)c1)c1ccc(C)c(Cl)c1 ; MIC = 2

The recorded MIC for entry O=C(OB(c1ccc(F)c(Cl)c1)c1ccc(F)c(Cl)c1)c1ncccc1O equals 1

For reference, reported MIC for Cc1ccc(B(OC(=O)c2ncccc2O)c2ccc(C)c(Cl)c2)cc1 stands at 4

The reported MIC of the compound Cc1ccc(B(OC(=O)c2ccc(C(=O)O)cn2)c2ccc(C)c(Cl)c2)cc1Cl was 0.5

Given item O=C(OB(c1cccnc1)c1cccc(Cl)c1)c1ncccc1O , the value recorded as its MIC is 16

###

Listing of recorded MIC by entry.
tested on: Haemophilus influenzae; assay: Antibacterial activity against Haemophilus influenzae; type: functional

• Cc1ccc(B(OC(=O)c2ncccc2C(=O)c2ccccc2)c2ccc(C)c(Cl)c2)cc1Cl = > 64 µg/mL
• Cc1ccccc1B(OC(=O)c1ncccc1O)c1cccc(Cl)c1 = > 64 µg/mL

Record summary for O=C(OB(c1ccc(Cl)cc1)c1ccc(Cl)nc1)c1ncccc1O : reported MIC = 32 µg/mL

###

system: PBMC; experiment: Inhibition of LPS-induced TNFalpha release in human PBMC at 10 uM relative to Dexamethasone; assay type: functional
endpoint.label: inhibition at 10 µM (%)
Field format: number, assumed %, no unit text.

- Cc1cc(Cl)ccc1B(OC(=O)c1ncccc1O)c1ccc(Cl)cc1C: 101
- CC(=O)Oc1cccnc1C(=O)OB(c1ccc(C)c(Cl)c1)c1ccc(C)c(Cl)c1: 101
- Cc1ccc(B(OC(=O)c2ccc(C(=O)O)cn2)c2ccc(C)c(Cl)c2)cc1Cl: 100
- Cc1ccc(B(OC(=O)c2ncccc2O)c2ccc(C)c(Cl)c2)cc1Cl: 100

So for CC[C@H]1OC(=O)[C@H](C)[C@@H](O[C@H]2C[C@@](C)(OC)[C@@H](O)[C@H](C)O2)[C@H](C)[C@@H](O[C@@H]2O[C@H](C)C[C@H](N(C)C)[C@H]2O)[C@](C)(O)C[C@@H](C)C(=O)[C@H](C)[C@@H](O)[C@]1(C)O [ERYTHROMYCIN] , the logged inhibition at 10 µM turned out to be 22

###

tested on: Haemophilus influenzae; experiment: Antibacterial activity against Haemophilus influenzae; type: functional
endpoint.label: MIC (µg/mL)
Dear colleague, please return just the value in µg/mL, with no unit written.

- O=C(OB(c1ccc(Cl)cc1)c1cccnc1)c1ncccc1O: 16
- Cc1ccc(B(OC(=O)c2ccc(C(=O)O)cn2)c2ccc(C)c(Cl)c2)cc1Cl: 8
- CC[C@H]1OC(=O)[C@H](C)[C@@H](O[C@H]2C[C@@](C)(OC)[C@@H](O)[C@H](C)O2)[C@H](C)[C@@H](O[C@@H]2O[C@H](C)C[C@H](N(C)C)[C@H]2O)[C@](C)(O)C[C@@H](C)C(=O)[C@H](C)[C@@H](O)[C@]1(C)O: 4

Please fill in: MIC reported for Cc1ccc(B(OC(=O)c2ncccc2C(=O)O)c2ccc(C)c(Cl)c2)cc1Cl = 8

###

test system: Haemophilus influenzae; experiment: Antibacterial activity against Haemophilus influenzae; assay type: functional
Entries and their MIC
Numeric answer only, unit µg/mL assumed.

• Cc1cc(Cl)ccc1B(OC(=O)c1ncccc1O)c1ccc(Cl)cc1C = 16

Query O=C(OB(c1ccsc1)c1cccc(Cl)c1)c1ncccc1O yields MIC of 32

Entry O=C(OB(c1cccc(Cl)c1)c1cccc(Cl)c1)c1ncccc1O , MIC reported as 16

Just so you know, measured MIC for O=C(OB(c1ccc(F)c(Cl)c1)c1ccc(F)c(Cl)c1)c1ncccc1O came out at 4

Measured MIC of O=C(OB(c1cccnc1)c1cccc(Cl)c1)c1ncccc1O : 32

Measured MIC of O=C(OB(c1ccc(Cl)cc1)c1ccc(Cl)cc1)c1ncccc1O : 16

###

system: Staphylococcus aureus; assay: Antibacterial activity against Staphylococcus aureus; type: functional
endpoint.label: MIC (µg/mL)
Write the value in µg/mL as a bare number.

See these solved cases before continuing.
- CC[C@H]1OC(=O)[C@H](C)[C@@H](O[C@H]2C[C@@](C)(OC)[C@@H](O)[C@H](C)O2)[C@H](C)[C@@H](O[C@@H]2O[C@H](C)C[C@H](N(C)C)[C@H]2O)[C@](C)(O)C[C@@H](C)C(=O)[C@H](C)[C@@H](O)[C@]1(C)O [ERYTHROMYCIN]: 0.5
- O=C(OB(c1ccc(Cl)cc1)c1ccc(Cl)cc1)c1ncccc1O: 4
- Cc1cc(Cl)ccc1B(OC(=O)c1ncccc1O)c1ccc(Cl)cc1C: 4
- Cc1ccc(B(OC(=O)c2ncccc2C(=O)c2ccccc2)c2ccc(C)c(Cl)c2)cc1Cl: 0.5

MIC reading for O=C(OB(c1ccc(Cl)cc1)c1cccnc1)c1ncccc1O : 64

Lab note: measured MIC of CCOc1ccc(B(OC(=O)c2ncccc2O)c2ccc(OCC)c(Cl)c2)cc1Cl was 2

Form field MIC, entry Cc1ccc(B(OC(=O)c2ccccn2)c2ccc(C)c(Cl)c2)cc1Cl : 0.5

Looking up CN(C)c1ccc(B(OC(=O)c2ncccc2O)c2ccc(N(C)C)c(Cl)c2)cc1Cl , I found its MIC recorded as 32

Record summary for CSc1cccc(B(OC(=O)c2ncccc2O)c2cccc(Cl)c2)c1 : reported MIC = 8

###

test system: Staphylococcus aureus; experiment: Antibacterial activity against Staphylococcus aureus; type: functional
Let's look at some compounds and their measured MIC.

- O=C(OB(c1cccc(Cl)c1)c1cccc(Cl)c1)c1ncccc1O: ≤ 0.125 µg/mL

For this compound ( O=C(OB(c1cccc(F)c1)c1cccc(F)c1)c1ncccc1O ), measured MIC is > 64 µg/mL

// MIC lookup, compound = Cc1ccc(B(OC(=O)c2ncccc2N)c2ccc(C)c(Cl)c2)cc1Cl , result: > 64 µg/mL
